Hello, the source for this data is ChEMBL document CHEMBL4373641, in case you need it.

In this section we review reported IC50 values for a set of compounds.
Test system: SN12C
protocol summary: Antiproliferative activity against human SN12C cells assessed as reduction in cell viability after 48 hrs by SRB assay
Format: functional, cell-based
Numbers only here, please. The scale is µM.

C/C=C(\C)C(=O)O[C@H]1C=CC(=O)O[C@H]1COC(=O)[C@H](C)O | 15

Next item in the queue.
[in] Suppose we examine the compound `C/C=C(\C)C(=O)O[C@H]1C=CC(=O)O[C@H]1CNC(=O)[C@H](C)O` ; what IC50 value has been reported?
[out] 30

* * *

In this section we review reported pIC50 values for a set of compounds.
Tested on: 786-0
protocol summary: Antiproliferative activity against human 786-0 cells assessed as reduction in cell viability after 48 hrs by SRB assay
Format: functional, cell-based
settings: 786-0, 48 h
Expect pIC50 as a plain number equal to -log10 of the molar concentration.

C/C=C(\C)C(=O)O[C@H]1C=CC(=O)O[C@H]1COC(=O)[C@H](C)O | 4.82

Next item in the queue.
[in] Suppose we examine the compound `C/C=C(\C)C(=O)O[C@H]1C=CC(=O)O[C@H]1CNC(=O)[C@H](C)O` ; what pIC50 value has been reported?
[out] 4.52
